- Tested on: SC27B
- measurementDescription: qHTS profiling for inhibitors of Plasmodium falciparum proliferation (AID 504749); also: nearly all actives have a fitted effect of over 60% in size
- condition: P. falciparum in erythrocytes, SYBR Green DNA, 72 h; series mostly up to 28.7 µM
Records with an inconclusive call do not appear. Active and inactive are the calls of the source. Calls follow the shape of the dose curve; as a rule, active = well fitted inhibition curve with a large enough effect; inconclusive = small, poorly fitted or top-dose-only effect; inactive = flat fitted curve, though single readings scatter. Bridge positions count the residues as written; N and C are the ends. Square brackets hold non-standard residues; d marks the D form. Peptide text beside a SMILES is read from it. * marks the point of attachment. Octanoyl(6-Me) = CCC(C)CCCCC(=O)*; Dab = NCC[CH](N)C(=O)O
Answer with one of the outcomes class 1 (active), class 0 (inactive)

See these solved cases before continuing.
| compound | answerLabel |
| --- | --- |
| CO/N=C(/C(=O)N[C@@H]1C(=O)N2C(C(=O)O)=CCS[C@H]12)c1csc(N)n1 | class 0 |
| C1OCOCO1 | class 0 |
| CC1(C)S[C@@H]2[C@H](NC(=O)COc3ccccc3)C(=O)N2[C@H]1C(=O)O | class 0 |
| CCC(=O)O[C@@H](OP(=O)(CCCCc1ccccc1)CC(=O)N1C[C@H](C2CCCCC2)C[C@H]1C(=O)O)C(C)C (stereo partly drawn) | class 0 |
| CC(C)CN(C[C@@H](O)[C@H](Cc1ccccc1)NC(=O)O[C@H]1CCOC1)S(=O)(=O)c1ccc(N)cc1 | class 0 |

Query :: What did this assay record as the result for CCC(C)CCCCC(=O)NC(CCN)C(=O)NC(C(=O)NC(CCN)C(=O)NC1CCNC(=O)C(C(C)O)NC(=O)C(CCN)NC(=O)C(CCN)NC(=O)C(CC(C)C)NC(=O)C(Cc2ccccc2)NC(=O)C(CCN)NC1=O)C(C)O (stereo not drawn) ({Octanoyl(6-Me)}-[Dab]T[Dab][Dab][Dab]FL[Dab][Dab]T; lactam 4-C; configuration not given here) ?
Result :: class 0

Query :: What did this assay record as the result for CO[C@@H]1[C@@H](OC2OC(C)C(OC3CC(C)(O)C(OC(=O)CC(C)C)C(C)O3)C(N(C)C)C2O)[C@@H](CC=O)C[C@@H](C)C(=O)/C=C\C2O[C@H]2C[C@@H](C)OC(=O)C[C@H]1OC(C)=O (stereo partly drawn) ?
Result :: class 1

Query :: What did this assay record as the result for CC1CCC(C(C)C)C(OC(=O)c2ccccc2O)C1 (stereo not drawn) ?
Result :: class 0
